B1: library; a variant is named by its letters at N, in order (parent)
chain: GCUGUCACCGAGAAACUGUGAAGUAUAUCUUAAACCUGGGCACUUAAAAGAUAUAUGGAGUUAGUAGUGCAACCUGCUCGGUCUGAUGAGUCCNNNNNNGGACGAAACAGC

# Variants of: B1
# ASSAY_NAME: normalized RNA/DNA level with ligand (relative to sTRSVctl = 100) (log10 (% of sTRSVctl)); HEK293T; ligand: cyclic di-GMP (c-di-GMP-II aptamer); ligand concentration (+) RNA-Seq: 1 mM; higher = less ribozyme self-cleavage, higher mRNA level
# RUN_PARAMETERS: reporter: mCherry (pCS4076), ligand present: yes
MEASURED_ENDPOINT: normalized RNA/DNA level with ligand (log10)
Quick one: just the number, no unit, thanks!

Some variants with recorded normalized RNA/DNA level with ligand (log10):
| CONSTRUCT_SEQUENCE | OBSERVED_RESULT |
| --- | --- |
| GCUGUCACCGAGAAACUGUGAAGUAUAUCUUAAACCUGGGCACUUAAAAGAUAUAUGGAGUUAGUAGUGCAACCUGCUCGGUCUGAUGAGUCCAAGUUCGGACGAAACAGC | 1.84 |
| GCUGUCACCGAGAAACUGUGAAGUAUAUCUUAAACCUGGGCACUUAAAAGAUAUAUGGAGUUAGUAGUGCAACCUGCUCGGUCUGAUGAGUCCCGAGAGGGACGAAACAGC | 1.84 |
| GCUGUCACCGAGAAACUGUGAAGUAUAUCUUAAACCUGGGCACUUAAAAGAUAUAUGGAGUUAGUAGUGCAACCUGCUCGGUCUGAUGAGUCCAUUCAAGGACGAAACAGC | 1.77 |
| GCUGUCACCGAGAAACUGUGAAGUAUAUCUUAAACCUGGGCACUUAAAAGAUAUAUGGAGUUAGUAGUGCAACCUGCUCGGUCUGAUGAGUCCUCGGGAGGACGAAACAGC | 1.72 |
| GCUGUCACCGAGAAACUGUGAAGUAUAUCUUAAACCUGGGCACUUAAAAGAUAUAUGGAGUUAGUAGUGCAACCUGCUCGGUCUGAUGAGUCCGAUUCAGGACGAAACAGC | 1.85 |

Which value of normalized RNA/DNA level with ligand (log10) has been reported for GCUGUCACCGAGAAACUGUGAAGUAUAUCUUAAACCUGGGCACUUAAAAGAUAUAUGGAGUUAGUAGUGCAACCUGCUCGGUCUGAUGAGUCCUCGUUAGGACGAAACAGC in the records?
1.63

Which value of normalized RNA/DNA level with ligand (log10) has been reported for GCUGUCACCGAGAAACUGUGAAGUAUAUCUUAAACCUGGGCACUUAAAAGAUAUAUGGAGUUAGUAGUGCAACCUGCUCGGUCUGAUGAGUCCAGUCGUGGACGAAACAGC in the records?
1.79

Which value of normalized RNA/DNA level with ligand (log10) has been reported for GCUGUCACCGAGAAACUGUGAAGUAUAUCUUAAACCUGGGCACUUAAAAGAUAUAUGGAGUUAGUAGUGCAACCUGCUCGGUCUGAUGAGUCCUAAUUGGGACGAAACAGC in the records?
1.83

Which value of normalized RNA/DNA level with ligand (log10) has been reported for GCUGUCACCGAGAAACUGUGAAGUAUAUCUUAAACCUGGGCACUUAAAAGAUAUAUGGAGUUAGUAGUGCAACCUGCUCGGUCUGAUGAGUCCUCAUACGGACGAAACAGC in the records?
1.81

Which value of normalized RNA/DNA level with ligand (log10) has been reported for GCUGUCACCGAGAAACUGUGAAGUAUAUCUUAAACCUGGGCACUUAAAAGAUAUAUGGAGUUAGUAGUGCAACCUGCUCGGUCUGAUGAGUCCCGCGUGGGACGAAACAGC in the records?
1.79

Which value of normalized RNA/DNA level with ligand (log10) has been reported for GCUGUCACCGAGAAACUGUGAAGUAUAUCUUAAACCUGGGCACUUAAAAGAUAUAUGGAGUUAGUAGUGCAACCUGCUCGGUCUGAUGAGUCCUUGGGUGGACGAAACAGC in the records?
1.84
